# assayNotes: activity coefficient (dimensionless); of the first substance listed, at infinite dilution; xn = mol fraction of the nth substance listed
# testConditions: 333.15 K; 101 kPa; Liquid; Chromatography; x1 = 0
Class yes (1): activity coefficient at least 0.6. Class no (0): activity coefficient below 0.6.

Hi team, for CCC[N+](=O)[O-] [1-nitropropane] + CC1(C)[C@@H]2CC[C@@]1(CS(=O)(=O)[O-])C(=O)C2.CCCCCCCCCCCCCC[N+](CCCCCC)(CCCCCC)CCCCCC , is the recorded activity coefficient at or above 0.6?
no (0)

----------
# assayNotes: activity coefficient (dimensionless); of the first substance listed, at infinite dilution; xn = mol fraction of the nth substance listed
# testConditions: 333.15 K; 101 kPa; Liquid; Chromatography; x1 = 0
Class t: activity coefficient at least 0.5. Class f: activity coefficient below 0.5.

Please review the entries below; each comes with its answer.
{"columns": ["compound", "category"],
 "data": [
  ["c1ccsc1 [thiophene] + CC1(C)[C@@H]2CC[C@@]1(CS(=O)(=O)[O-])C(=O)C2.CCCCCCCCCCCCCC[N+](CCCCCC)(CCCCCC)CCCCCC", "f"],
  ["CC1CCCC1 [methylcyclopentane] + CC1(C)[C@@H]2CC[C@@]1(CS(=O)(=O)[O-])C(=O)C2.CCCCCCCCCCCCCC[N+](CCCCCC)(CCCCCC)CCCCCC", "t"],
  ["CCC(C)=O [butanone] + CC1(C)[C@@H]2CC[C@@]1(CS(=O)(=O)[O-])C(=O)C2.CCCCCCCCCCCCCC[N+](CCCCCC)(CCCCCC)CCCCCC", "t"],
  ["Cc1ccccc1 [toluene] + CC1(C)[C@@H]2CC[C@@]1(CS(=O)(=O)[O-])C(=O)C2.CCCCCCCCCCCCCC[N+](CCCCCC)(CCCCCC)CCCCCC", "t"],
  ["C=CCCCC [hex-1-ene] + CC1(C)[C@@H]2CC[C@@]1(CS(=O)(=O)[O-])C(=O)C2.CCCCCCCCCCCCCC[N+](CCCCCC)(CCCCCC)CCCCCC", "t"],
  ["CCCCCCCCCCC [undecane] + CC1(C)[C@@H]2CC[C@@]1(CS(=O)(=O)[O-])C(=O)C2.CCCCCCCCCCCCCC[N+](CCCCCC)(CCCCCC)CCCCCC", "t"],
  ["CCC(=O)CC [pentan-3-one] + CC1(C)[C@@H]2CC[C@@]1(CS(=O)(=O)[O-])C(=O)C2.CCCCCCCCCCCCCC[N+](CCCCCC)(CCCCCC)CCCCCC", "t"],
  ["ClCCl [dichloromethane] + CC1(C)[C@@H]2CC[C@@]1(CS(=O)(=O)[O-])C(=O)C2.CCCCCCCCCCCCCC[N+](CCCCCC)(CCCCCC)CCCCCC", "f"]
]}

Hi team, for CCO [ethanol] + CC1(C)[C@@H]2CC[C@@]1(CS(=O)(=O)[O-])C(=O)C2.CCCCCCCCCCCCCC[N+](CCCCCC)(CCCCCC)CCCCCC , is the recorded activity coefficient at or above 0.5?
f

Hi team, for C#CCCCCC [1-heptyne] + CC1(C)[C@@H]2CC[C@@]1(CS(=O)(=O)[O-])C(=O)C2.CCCCCCCCCCCCCC[N+](CCCCCC)(CCCCCC)CCCCCC , is the recorded activity coefficient at or above 0.5?
t

Hi team, for CCCC(C)=O [pentan-2-one] + CC1(C)[C@@H]2CC[C@@]1(CS(=O)(=O)[O-])C(=O)C2.CCCCCCCCCCCCCC[N+](CCCCCC)(CCCCCC)CCCCCC , is the recorded activity coefficient at or above 0.5?
t

Hi team, for CO [methanol] + CC1(C)[C@@H]2CC[C@@]1(CS(=O)(=O)[O-])C(=O)C2.CCCCCCCCCCCCCC[N+](CCCCCC)(CCCCCC)CCCCCC , is the recorded activity coefficient at or above 0.5?
f

Hi team, for CCCCCCC [heptane] + CC1(C)[C@@H]2CC[C@@]1(CS(=O)(=O)[O-])C(=O)C2.CCCCCCCCCCCCCC[N+](CCCCCC)(CCCCCC)CCCCCC , is the recorded activity coefficient at or above 0.5?
t

Hi team, for CCN(CC)CC [triethylamine] + CC1(C)[C@@H]2CC[C@@]1(CS(=O)(=O)[O-])C(=O)C2.CCCCCCCCCCCCCC[N+](CCCCCC)(CCCCCC)CCCCCC , is the recorded activity coefficient at or above 0.5?
t

Hi team, for CCCO [propan-1-ol] + CC1(C)[C@@H]2CC[C@@]1(CS(=O)(=O)[O-])C(=O)C2.CCCCCCCCCCCCCC[N+](CCCCCC)(CCCCCC)CCCCCC , is the recorded activity coefficient at or above 0.5?
f
